Molecular target: human DLK (Homo sapiens)
Sequence (Q12852 1-859): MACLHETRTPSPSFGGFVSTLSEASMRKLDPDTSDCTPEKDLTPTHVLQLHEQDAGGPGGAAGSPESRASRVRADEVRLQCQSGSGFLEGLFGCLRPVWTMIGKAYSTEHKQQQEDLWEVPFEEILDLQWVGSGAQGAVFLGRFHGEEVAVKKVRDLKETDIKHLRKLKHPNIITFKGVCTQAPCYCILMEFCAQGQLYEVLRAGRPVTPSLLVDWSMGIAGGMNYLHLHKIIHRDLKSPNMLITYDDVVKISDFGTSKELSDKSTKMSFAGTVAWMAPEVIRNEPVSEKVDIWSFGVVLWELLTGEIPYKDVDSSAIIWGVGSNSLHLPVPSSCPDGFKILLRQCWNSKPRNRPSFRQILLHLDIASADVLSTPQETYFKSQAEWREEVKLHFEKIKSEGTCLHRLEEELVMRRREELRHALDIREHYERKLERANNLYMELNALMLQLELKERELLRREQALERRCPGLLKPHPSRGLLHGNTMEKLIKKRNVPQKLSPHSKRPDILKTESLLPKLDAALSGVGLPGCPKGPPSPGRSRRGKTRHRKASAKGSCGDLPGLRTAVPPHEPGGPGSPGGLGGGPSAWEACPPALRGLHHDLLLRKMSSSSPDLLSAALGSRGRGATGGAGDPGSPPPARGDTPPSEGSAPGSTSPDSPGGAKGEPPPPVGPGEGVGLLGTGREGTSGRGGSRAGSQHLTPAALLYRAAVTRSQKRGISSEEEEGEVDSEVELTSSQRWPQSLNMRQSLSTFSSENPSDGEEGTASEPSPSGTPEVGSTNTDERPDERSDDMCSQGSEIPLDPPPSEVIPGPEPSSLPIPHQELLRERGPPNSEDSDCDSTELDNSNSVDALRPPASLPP
Experiment: Phospho-cJun Cellular Assay
Details: HEK293 cells stably transfected with Dox-inducible human DLK; p-cJun (Ser63); 5 h compound incubation
Each entry below carries its recorded IC50.

Compound	IC50
CC(C)c1nc(-c2cnc(N)c(C(F)(F)F)c2)cn1[C@H]1[C@@H]2CC(O)C[C@@H]21 (single isomer, unassigned) [Example 48b]	1240 nM
CN1CCN(C2C[C@@H]3[C@H](C2)[C@H]3n2cc(-c3cnc(N)c(C(F)(F)F)c3)nc2C2CC2)CC1 (single isomer, unassigned) [Example 129b]	633 nM
Nc1ncc(-c2cn([C@H]3[C@@H]4CN(C5CCOCC5)C[C@@H]43)c(C3CC3)n2)cc1C(F)(F)F	1350 nM
CC(C)c1nc(-c2cnc(N)c(OC(F)(F)F)c2)cn1C1CC2(CC(N3CCOCC3)C2)C1 (stereo not drawn)	771 nM
CC(C)c1nc(-c2cnc(N)c(OC(F)(F)F)c2)cn1[C@H]1[C@@H]2CN(C3COC3)C[C@@H]21	1670 nM
CC(C)c1nc(-c2cnc(N)c(C(F)(F)F)c2)cn1C1CCC1	1070 nM
Nc1ncc(-c2cn(C3CC4(CC(N5CCOCC5)C4)C3)c(C3CC3)n2)cc1OC(F)(F)F (stereo not drawn)	483 nM
CC(C)c1nc(-c2cnc(N)c(C(F)(F)F)c2)cn1[C@H]1C[C@@H](N2CCCOCC2)C1	6190 nM
Nc1ncc(-c2cn([C@H]3[C@@H]4CN(C5COC5)C[C@@H]43)c(CC3CC3)n2)cc1C(F)(F)F	1730 nM
CC(C)c1nc(-c2cnc(N)c(C(F)(F)F)c2)cn1[C@H]1[C@@H]2CC(N3CCOC[C@@H]3C)C[C@@H]21 (stereo partly drawn) [Example 131]	1390 nM
CC(C)c1nc(-c2cnc(N)c(OC(F)(F)F)c2)cn1[C@H]1[C@@H]2CC(N3CCN(C)CC3)C[C@@H]21 (single isomer, unassigned) [Example 133b]	645 nM
COCCN1C[C@@H]2[C@H](C1)[C@H]2n1cc(-c2cnc(N)c(C(F)(F)F)c2)nc1C1CC1	1960 nM
CN1CCN(C2C[C@@H]3[C@H](C2)[C@H]3n2cc(-c3cnc(N)c(C(F)(F)F)c3)nc2C2CC2)CC1 (single isomer, unassigned) [Example 129a]	503 nM
CC(C)Cc1nc(-c2cnc(N)c(C(F)(F)F)c2)cn1[C@H]1[C@@H]2CC(N3CCN(CCF)CC3)C[C@@H]21 (single isomer, unassigned) [Example 160a]	738 nM
Nc1ncc(-c2cn([C@H]3[C@@H]4CNC[C@@H]43)c(C3CC3)n2)cc1OC(F)(F)F	802 nM
CC(C)c1nc(-c2cnc(N)c(OC(F)(F)F)c2)cn1[C@H]1[C@@H]2CC(N3CCOC[C@@H]3C)C[C@@H]21 (single isomer, unassigned) [Example 157a]	895 nM
C[C@H]1COCCN1C1C[C@@H]2[C@H](C1)[C@H]2n1cc(-c2cnc(N)c(C(F)(F)F)c2)nc1C1CC1 (single isomer, unassigned) [Example 140a]	834 nM
Nc1ncc(-c2cn([C@H]3[C@@H]4CN(CCF)C[C@@H]43)c(CC3CC3)n2)cc1C(F)(F)F	1490 nM
CC(C)c1nc(-c2cnc(N)c(OC(F)(F)F)c2)cn1[C@H]1[C@@H]2CN(C3CCOCC3)C[C@@H]21	1510 nM
Nc1ncc(-c2cn([C@H]3[C@@H]4CN(C5CCOCC5)C[C@@H]43)c(CC(F)(F)F)n2)cc1C(F)(F)F	1850 nM
CC(C)c1nc(-c2cnc(N)c(C(F)(F)F)c2)cn1[C@H]1[C@@H]2CC(N3CCOCC3)C[C@@H]21 (single isomer, unassigned) [Example 127a]	939 nM
Nc1ncc(-c2cn([C@H]3[C@@H]4CN(C5COC5)C[C@@H]43)c(CC3CC3)n2)cc1OC(F)(F)F	1820 nM
Nc1ncc(-c2cn([C@H]3[C@@H]4CN(C5CCOCC5)C[C@@H]43)c(CC3CC3)n2)cc1OC(F)F	994 nM
CC(C)c1nc(-c2cnc(N)c(C(F)(F)F)c2)cn1C1CC2(C1)CN(C1COC1)C2	2150 nM
CC(C)c1nc(-c2cnc(N)c(OC(F)(F)F)c2)cn1[C@H]1[C@@H]2CC(N3CCN(C)CC3)C[C@@H]21 (single isomer, unassigned) [Example 133a]	896 nM
Nc1ncc(-c2cn3c(n2)C(C2CC2)N(C2COC2)CC3)cc1C(F)(F)F (stereo not drawn)	14800 nM
CC(C)c1nc(-c2cnc(N)c(C(F)(F)F)c2)cn1[C@H]1[C@@H]2CC(N3CCN(C)CC3)C[C@@H]21 (stereo partly drawn) [Example 144]	859 nM

* * *

Below is a list of entries, each paired with its recorded Kd value.
molecular target: human DLK (Homo sapiens, UniProt Q12852); assay: DLK Kd Determinations (KINOMEscan KdELECT, DiscoveRx); settings: fusion protein of full length human DLK (amino acids 1-859) and NFkB DNA binding domain; qPCR readout; duplicate
Observation Type: Kd (nM)

Compound	Study System	Unit Text	Val
Nc1ncc(-c2cn([C@H]3[C@@H]4CN(CC(F)(F)F)C[C@@H]43)c(CC3CC3)n2)cc1C(F)(F)F	human DLK (Homo sapiens, UniProt Q12852)	nM	180
Nc1ncc(-c2cn(C3CC4(CC(N5CCOCC5)C4)C3)c(C3CC3)n2)cc1C(F)(F)F (centres unmarked)	human DLK (Homo sapiens, UniProt Q12852)	nM	42
CN1CCN(C2C[C@@H]3[C@H](C2)[C@H]3n2cc(-c3cnc(N)c(OC(F)(F)F)c3)nc2CC2CC2)CC1 (single isomer, unassigned) [Example 151b]	human DLK (Homo sapiens, UniProt Q12852)	nM	20
CN1CCN(C2CC3C(C2)C3n2cc(-c3cnc(N)c(OC(F)F)c3)nc2C2CC2)CC1 (centres unmarked)	human DLK (Homo sapiens, UniProt Q12852)	nM	22
COCCN1C[C@@H]2[C@H](C1)[C@H]2n1cc(-c2cnc(N)c(OC(F)F)c2)nc1CC1CC1	human DLK (Homo sapiens, UniProt Q12852)	nM	48
Nc1ncc(-c2cn([C@H]3[C@@H]4CC(N5CCOCC5)C[C@@H]43)c(C3CC3)n2)cc1OC(F)(F)F (single isomer, unassigned) [Example 139a]	human DLK (Homo sapiens, UniProt Q12852)	nM	37
CC(C)c1nc(-c2cnc(N)c(C(F)(F)F)c2)cn1C1CC(N2CCOCC2)C1 (centres unmarked)	human DLK (Homo sapiens, UniProt Q12852)	nM	92
CC(C)c1nc(-c2cnc(N)c(OC(F)F)c2)cn1[C@H]1[C@@H]2CNC[C@@H]21	human DLK (Homo sapiens, UniProt Q12852)	nM	170
CC(C)c1nc(-c2cnc(N)c(C(F)(F)F)c2)cn1[C@H]1[C@@H]2CC(N3CCOCC3)C[C@@H]21 (single isomer, unassigned) [Example 127a]	human DLK (Homo sapiens, UniProt Q12852)	nM	52
Nc1ncc(-c2cn([C@H]3[C@@H]4CN(C5COC5)C[C@@H]43)c(C3CCCC3)n2)cc1C(F)(F)F	human DLK (Homo sapiens, UniProt Q12852)	nM	85
COCCN1C[C@@H]2[C@H](C1)[C@H]2n1cc(-c2cnc(N)c(C(F)(F)F)c2)nc1CC(F)(F)F	human DLK (Homo sapiens, UniProt Q12852)	nM	49
CC(C)c1nc(-c2cnc(N)c(OC(F)(F)F)c2)cn1[C@H]1[C@@H]2CC(N3CCOC[C@@H]3C)C[C@@H]21 (single isomer, unassigned) [Example 157a]	human DLK (Homo sapiens, UniProt Q12852)	nM	57
CN1CCN(C2C[C@@H]3[C@H](C2)[C@H]3n2cc(-c3cnc(N)c(OC(F)(F)F)c3)nc2C2CC2)CC1 (some centres unmarked)	human DLK (Homo sapiens, UniProt Q12852)	nM	17
CC(C)c1nc(-c2cnc(N)c(C(F)(F)F)c2)cn1[C@H]1C[C@H](N2CCOCC2)C1	human DLK (Homo sapiens, UniProt Q12852)	nM	180
